# Assayed system: Protein skinhead-1 (Caenorhabditis elegans, UniProt P34707)
# Sequence (P34707 whole entry): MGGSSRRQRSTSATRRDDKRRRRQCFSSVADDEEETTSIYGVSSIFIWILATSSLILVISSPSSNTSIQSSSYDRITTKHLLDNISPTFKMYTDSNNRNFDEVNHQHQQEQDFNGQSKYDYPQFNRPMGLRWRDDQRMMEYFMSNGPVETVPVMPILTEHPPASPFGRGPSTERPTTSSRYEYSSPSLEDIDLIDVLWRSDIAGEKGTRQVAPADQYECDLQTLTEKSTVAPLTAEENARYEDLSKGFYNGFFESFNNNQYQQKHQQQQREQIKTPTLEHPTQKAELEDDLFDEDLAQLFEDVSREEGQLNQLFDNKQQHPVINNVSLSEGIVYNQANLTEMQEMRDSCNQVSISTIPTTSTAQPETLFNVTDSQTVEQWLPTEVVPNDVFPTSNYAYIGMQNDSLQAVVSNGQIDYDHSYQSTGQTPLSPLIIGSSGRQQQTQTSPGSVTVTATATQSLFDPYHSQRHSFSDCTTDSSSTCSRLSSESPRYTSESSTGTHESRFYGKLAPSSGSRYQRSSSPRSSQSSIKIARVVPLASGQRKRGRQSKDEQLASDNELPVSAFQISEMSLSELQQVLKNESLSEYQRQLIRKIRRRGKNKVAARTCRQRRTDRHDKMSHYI
# Assay type: functional
Active and inactive are the calls of the source.
Possible outcomes: active, inactive

>  <Compound>
O=C(Nc1nc(-c2ccc(Cl)s2)cs1)c1ccco1

>  <Group label>
active

$$$$
>  <Compound>
O=C(CC1Sc2ccccc2NC1=O)NNc1cc(Cl)ccc1Cl (centres undefined)

>  <Group label>
inactive

$$$$
>  <Compound>
Brc1ccc2oc(-c3cc[nH]n3)cc2c1

>  <Group label>
inactive

$$$$
>  <Compound>
Cc1nc2nc(C)c(CCC(=O)N3CCN(c4ccccc4)CC3)c(C)n2n1

>  <Group label>
inactive

$$$$
>  <Compound>
COC(=O)c1ccc(C#Cc2ccccc2)o1

>  <Group label>
inactive

$$$$
>  <Compound>
O=c1oc2ccc3ccccc3c2cc1-c1nnc(-c2ccccc2)o1

>  <Group label>
inactive

$$$$
>  <Compound>
O=S(=O)(Cc1cc(Sc2ccccc2)nc(-c2ccccc2)n1)c1ccccc1

>  <Group label>
inactive

$$$$
>  <Compound>
O=[N+]([O-])c1ccc(Nc2ccc(Cl)cc2)nc1

>  <Group label>
inactive

$$$$
>  <Compound>
Cc1ccc(O)c(-c2cc(-c3cccc(F)c3)[nH]n2)c1

>  <Group label>
inactive

$$$$
>  <Compound>
CN1CCN(C(=O)c2ccccc2N(Cc2ccccc2)S(C)(=O)=O)CC1

>  <Group label>
inactive

$$$$
>  <Compound>
Fc1ccccc1OCCSc1nc2ccccc2o1

>  <Group label>
active

$$$$
>  <Compound>
O=c1c2ccccc2oc2ccc(-c3ccc4[nH]ccc4c3)cc12

>  <Group label>
active

$$$$
>  <Compound>
Cc1[nH]c2ccccc2c1C(=O)/C=C/c1ccccc1

>  <Group label>
inactive

$$$$
>  <Compound>
CCOc1ccc(-c2nc(N)ncc2Oc2cccc(OC)c2)c(O)c1

>  <Group label>
inactive

$$$$

----------
Measured IC50, listed per entry.
# Assayed system: Carboxy-terminal domain RNA polymerase II polypeptide A small phosphatase 1 (Homo sapiens)
# Sequence (Q9GZU7 whole entry, the tested form may be a part): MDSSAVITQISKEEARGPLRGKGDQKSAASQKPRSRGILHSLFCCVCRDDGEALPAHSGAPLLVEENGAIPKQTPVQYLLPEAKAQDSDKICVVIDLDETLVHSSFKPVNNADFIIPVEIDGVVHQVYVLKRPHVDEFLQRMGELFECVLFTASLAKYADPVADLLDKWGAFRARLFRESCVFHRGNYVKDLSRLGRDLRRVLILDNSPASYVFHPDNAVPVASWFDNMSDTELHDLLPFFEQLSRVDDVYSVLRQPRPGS
# Assay explanation: CTDSP1 inhibitors, concentration-response, biochemical, absorbance readout, ultra-high-throughput screen actives (AID 540297)
# Format: functional
Calls of active or inactive are those of the source.

>  <Compound>
CCC1(CC)NC(=O)N(CC(=O)Nc2sc3c(c2C(N)=O)CCC3)C1=O

>  <IC50>
3.98 µM (active)

$$$$
>  <Compound>
CCc1ccc(NC(=O)C[S+]([O-])CC(=O)Nc2ccc(N3CCOCC3)cc2)cc1 (stereo not drawn)

>  <IC50>
5.78 µM (active)

$$$$
>  <Compound>
Cn1cnc(C(=O)N2CCc3ccccc3C2)c1C(=O)N1CCc2ccccc2C1

>  <IC50>
4.36 µM (active)

$$$$
>  <Compound>
COc1ccc(OC)c(NC(=O)CSc2sc3c(O)cc(=O)[nH]c3c2C#N)c1

>  <IC50>
5.22 µM (active)

$$$$
>  <Compound>
O=C(O)c1ccc2c(c1)C(=O)N(c1cccc(-c3nc4ccccc4s3)c1)C2=O

>  <IC50>
7.07 µM (active)

$$$$
>  <Compound>
Cc1ccc2[nH]c(O)c(N=NC(=O)c3ccc(NS(=O)(=O)c4cccs4)cc3)c2c1

>  <IC50>
11.5 µM (active)

$$$$
>  <Compound>
Cc1nnc(SCC(=O)Nc2nsc(-c3ccc(Cl)cc3)n2)s1

>  <IC50>
15.2 µM (active)

$$$$
>  <Compound>
N#Cc1ccccc1S(=O)(=O)N1CCN(C(=O)c2cc3c(s2)CCC3)CC1

>  <IC50>
5.88 µM (active)

$$$$

Values were extracted from ChEMBL document CHEMBL1201862.
